Recorded values, source PubChem BioAssay AID2060609.

I'd be grateful if you could share measured viability, T/C for these entries.
- System: 855422-203-R-J1-PDC complex spheroids, viability;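 also: spheroids exposed to drugs for seven days before readout; 100% = DMSO vehicle control wells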
- measurement notes: Anticancer human tumor 855422-203-R-J1-PDC patient-derived bladder carcinoma cell line growth inhibition [CLK]
- measurement setup: second compound 0.1 µM; first compound 3.16 µM; stronger effect = lower value

**Query** Provide measured viability, T/C value, entry: COc1ccc([C@@H](O)c2cc(-c3ncnc4cc(N5CCOCC5)ccc34)c(F)cc2Cl)nn1 + CNC(=O)c1ccc(Nc2nc(OC3CCCC3)c3c(-c4ccc5nc(C)oc5c4)c[nH]c3n2)c(OC)c1
**Result** 48.9%

**Query** Provide measured viability, T/C value, entry: CC(Nc1ccc2c(c1)OCCn1cc(N3C(=O)OCC3C(F)F)nc1-2)C(N)=O (stereo not drawn) + CN1CCN(c2cc(C(=O)Nc3cc4cc(-c5cnn(C)c5)ccc4cn3)ccn2)CC1
**Result** 20.1%

**Query** Provide measured viability, T/C value, entry: C=CC(=O)N1CCN(c2nc(=O)n(-c3c(C)ccnc3C(C)C)c3nc(-c4c(O)cccc4F)c(F)cc23)C(C)C1 (stereo not drawn) + CNC(=O)c1ccc(Nc2nc(OC3CCCC3)c3c(-c4ccc5nc(C)oc5c4)c[nH]c3n2)c(OC)c1
**Result** 43.5%
